# Test target: Cytochrome P450 2E1 (CYP2E1) (Homo sapiens, UniProt P05181)
# Sequence (P05181 whole entry): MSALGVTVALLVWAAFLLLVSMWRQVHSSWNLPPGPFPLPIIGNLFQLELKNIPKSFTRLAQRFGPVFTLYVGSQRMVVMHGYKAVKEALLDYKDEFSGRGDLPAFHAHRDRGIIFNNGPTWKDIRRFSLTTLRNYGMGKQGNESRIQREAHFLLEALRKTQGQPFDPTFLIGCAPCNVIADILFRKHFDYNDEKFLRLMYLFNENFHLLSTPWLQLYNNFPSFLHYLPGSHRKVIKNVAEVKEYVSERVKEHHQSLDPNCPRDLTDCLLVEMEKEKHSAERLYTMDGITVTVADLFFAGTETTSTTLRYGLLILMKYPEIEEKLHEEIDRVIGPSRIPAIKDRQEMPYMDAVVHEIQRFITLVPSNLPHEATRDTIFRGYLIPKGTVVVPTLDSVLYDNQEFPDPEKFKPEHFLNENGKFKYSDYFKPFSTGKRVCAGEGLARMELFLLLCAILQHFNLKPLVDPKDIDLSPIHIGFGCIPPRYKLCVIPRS
# Experiment: In-vitro screening of CYP2E1 inhibitors in human liver microsomes (chlorzoxazone 6-hydroxylation)
# Experimental context: human liver microsomes, test concentration 66 μM
Recorded CYP 2E1 inhibition ratio, one value per entry.
Answer format: numeric, % implied, no suffix.

O.O.O=P([O-])([O-])O.[Ca+2] [Dicalcium phosphate dihydrate]	60.1
O=C(O)CC(O)(CC(=O)O)C(=O)O	20.5
C/C=C/C=C/C(=O)O	14.8
O=C1NS(=O)(=O)c2ccccc21	78.5

--- query ---
Return reported CYP 2E1 inhibition ratio. Input molecule: CC1CCC(C(C)C)C(O)C1 (centres unmarked) 30.8

====

In this section we review reported CYP 2E1 inhibition ratio values for a set of compounds.
# Test target: Cytochrome P450 2E1 (CYP2E1) (Homo sapiens, UniProt P05181)
# Experiment: In-vitro screening of CYP2E1 inhibitors in human liver microsomes (chlorzoxazone 6-hydroxylation)
# Experimental context: human liver microsomes, test concentration 16.5 μM
Please state the figure in %; there is no need to write the unit.

Below, each entry is followed by its recorded CYP 2E1 inhibition ratio result.
O=C(O)CC(O)(CC(=O)O)C(=O)O	9.9
CC1CCC(C(C)C)C(O)C1 (centres unmarked)	10.5
C/C=C/C=C/C(=O)O	8.4
O=C1NS(=O)(=O)c2ccccc21	29.4

Report CYP 2E1 inhibition ratio on Cytochrome P450 2E1 (CYP2E1) (Homo sapiens, UniProt P05181) for this entry: O.O.O=P([O-])([O-])O.[Ca+2] [Dicalcium phosphate dihydrate] 31.2

====

# Test target: Cytochrome P450 2E1 (CYP2E1) (Rattus norvegicus)
# Experiment: In-vitro screening of CYP2E1 inhibitors in rat liver microsomes (chlorzoxazone 6-hydroxylation)
# Experimental context: rat liver microsomes, test concentration 33 μM
Readout label: CYP 2E1 inhibition ratio

Past entries and their recorded results:
O=C(O)CC(O)(CC(=O)O)C(=O)O	12.4 ± 2.2%
C/C=C/C=C/C(=O)O	13.2 ± 4.4%
CCCCCCCCCCCCOS(=O)(=O)[O-].[Na+] [Sodium lauryl sulfate]	6.4 ± 0.9%
O.O.O=P([O-])([O-])O.[Ca+2] [Dicalcium phosphate dihydrate]	62.0 ± 2.6%

Name the recorded CYP 2E1 inhibition ratio of the item O=C1NS(=O)(=O)c2ccccc21 in your answer. 59.6 ± 3.3%

Input CC1CCC(C(C)C)C(O)C1 (centres unmarked) , output reported CYP 2E1 inhibition ratio. 15.3 ± 7.9%

Let me know recorded CYP 2E1 inhibition ratio for O=C([O-])c1ccccc1.[Na+] [Sodium benzoate] , thanks. 7.8 ± 4.1%

Look up and report measured CYP 2E1 inhibition ratio for this entry: CC1=CC(=O)NS(=O)(=O)O1 7.1 ± 2.3%

====

This listing pairs compounds with measured CYP 2E1 inhibition ratio.
# Test target: Cytochrome P450 2E1 (CYP2E1) (Rattus norvegicus)
# Experiment: In-vitro screening of CYP2E1 inhibitors in rat liver microsomes (chlorzoxazone 6-hydroxylation)
# Experimental context: rat, microsomes, 30 min, 66 μM, pH 7.4
State the answer as a number, implicitly in %.

Guide cases for CYP 2E1 inhibition ratio, answers given:
CCCOC(=O)c1ccc(O)cc1	−27.3
OC[C@H]1O[C@H](O[C@]2(CCl)O[C@H](CCl)[C@@H](O)[C@@H]2O)[C@H](O)[C@@H](O)[C@H]1Cl	54.0
O.OC[C@H]1O[C@@H](O[C@H]2[C@H](O)[C@@H](O)C(O)O[C@@H]2CO)[C@H](O)[C@@H](O)[C@H]1O (stereo partly drawn) [Lactose monohydrate]	8.7

Query CYP 2E1 inhibition ratio for CCCCCCCCCCCCCCCCCCCCCC(=O)OCC(O)CO (stereo not drawn) [Glyceryl behenate] 8.2

Give the reported CYP 2E1 inhibition ratio for this compound. COC(=O)c1ccc(O)cc1 −21.5

Return reported CYP 2E1 inhibition ratio. Input compound: OC[C@@H](O)[C@@H](O)[C@H](O)[C@H](O)CO 60.6

====

Parameter: CYP 2E1 inhibition ratio. Scope: all listed entries.
# Test target: Cytochrome P450 2E1 (CYP2E1) (Rattus norvegicus)
# Experiment: In-vitro screening of CYP2E1 inhibitors in rat liver microsomes (chlorzoxazone 6-hydroxylation)
# Experimental context: rat liver microsomes, test concentration 66 μM
Record the value in %, omitting the unit from your answer.

Recorded CYP 2E1 inhibition ratio, per entry:
O=C1NS(=O)(=O)c2ccccc21	67.4
O=C([O-])c1ccccc1.[Na+] [Sodium benzoate]	15.8
C/C=C/C=C/C(=O)O	19.0
CC1CCC(C(C)C)C(O)C1 (centres unmarked)	36.4

Return CYP 2E1 inhibition ratio (reported value) for this compound: O=C(O)CC(O)(CC(=O)O)C(=O)O 27.6

Return value of CYP 2E1 inhibition ratio for input CCCCCCCCCCCCOS(=O)(=O)[O-].[Na+] [Sodium lauryl sulfate] , no commentary. 4.8

Respond only with CYP 2E1 inhibition ratio recorded for O.O.O=P([O-])([O-])O.[Ca+2] [Dicalcium phosphate dihydrate] 76.7

Please report the measured CYP 2E1 inhibition ratio for CC1=CC(=O)NS(=O)(=O)O1 14.5

====

The entries below are paired with their reported CYP 2E1 inhibition ratio.
# Test target: Cytochrome P450 2E1 (CYP2E1) (Rattus norvegicus, UniProt P05182)
# Sequence (P05182 whole entry): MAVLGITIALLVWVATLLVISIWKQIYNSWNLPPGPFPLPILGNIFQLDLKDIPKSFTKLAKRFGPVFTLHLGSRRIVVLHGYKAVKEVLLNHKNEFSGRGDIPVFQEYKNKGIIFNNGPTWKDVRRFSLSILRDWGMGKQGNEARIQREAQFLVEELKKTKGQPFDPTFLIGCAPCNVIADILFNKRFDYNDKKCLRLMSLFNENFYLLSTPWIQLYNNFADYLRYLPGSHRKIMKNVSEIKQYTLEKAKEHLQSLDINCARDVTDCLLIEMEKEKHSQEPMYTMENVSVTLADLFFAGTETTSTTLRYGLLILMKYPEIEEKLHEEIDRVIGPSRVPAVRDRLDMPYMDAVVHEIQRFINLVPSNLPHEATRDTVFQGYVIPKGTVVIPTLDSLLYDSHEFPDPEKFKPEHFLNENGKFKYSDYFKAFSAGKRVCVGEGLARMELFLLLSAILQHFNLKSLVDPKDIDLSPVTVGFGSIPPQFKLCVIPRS
# Experiment: In-vitro screening of CYP2E1 inhibitors in rat liver microsomes (chlorzoxazone 6-hydroxylation)
# Experimental context: rat, microsomes, 30 min, 16.5 μM, pH 7.4
# Description: This example is preparation of microsomes from rat and human liver for in vitro screening of CYP2E1 inhibitors. A total of 55 safe and edible excipients are included in the screening for cytochrome P450 2E1 (CYP2E1) inhibitors. […] After addition of the test sample, the amount of CYP2E1 metabolite standard 6-OH—CZX (6-Hydroxy-Chlorzoxazone) is used for calculation of the CYP 2E1 inhibition ratio of the test sample by using the amount of 6-OH—CZX of the control group as the baseline. […]
The figure you give is taken to be in %; do not add the unit.

The cases that follow already have their CYP 2E1 inhibition ratio on record.
CCCCCCCCCCCCCCCCCCCCCC(=O)OCC(O)CO (stereo not drawn) [Glyceryl behenate]	3.1
COC(=O)c1ccc(O)cc1	4.6

Identify the reported CYP 2E1 inhibition ratio for the following entry. OC[C@@H](O)[C@@H](O)[C@H](O)[C@H](O)CO 40.9

Report CYP 2E1 inhibition ratio, nothing else, for this compound: OC[C@H]1O[C@H](O[C@]2(CCl)O[C@H](CCl)[C@@H](O)[C@@H]2O)[C@H](O)[C@@H](O)[C@H]1Cl 41.1

Consider the compound CCCOC(=O)c1ccc(O)cc1 and give its recorded CYP 2E1 inhibition ratio. −4.1

Item O.OC[C@H]1O[C@@H](O[C@H]2[C@H](O)[C@@H](O)C(O)O[C@@H]2CO)[C@H](O)[C@@H](O)[C@H]1O (stereo partly drawn) [Lactose monohydrate] : provide CYP 2E1 inhibition ratio 3.9

====

# Test target: Cytochrome P450 2E1 (CYP2E1) (Rattus norvegicus)
# Experiment: In-vitro screening of CYP2E1 inhibitors in rat liver microsomes (chlorzoxazone 6-hydroxylation)
# Experimental context: rat liver microsomes, test concentration 16.5 μM
Listed here are compounds together with their documented CYP 2E1 inhibition ratio.
// note: answer is a bare numeric in %

Worked cases, answers included:
CCCCCCCCCCCCOS(=O)(=O)[O-].[Na+] [Sodium lauryl sulfate]	4.6
O=C([O-])c1ccccc1.[Na+] [Sodium benzoate]	7.1
CC1=CC(=O)NS(=O)(=O)O1	3.9
C/C=C/C=C/C(=O)O	12.1
O=C1NS(=O)(=O)c2ccccc21	35.3

Tell us which CYP 2E1 inhibition ratio value is on record for CC1CCC(C(C)C)C(O)C1 (centres unmarked) 7.2

Look up and report measured CYP 2E1 inhibition ratio for this entry: O=C(O)CC(O)(CC(=O)O)C(=O)O 7.5

Quote CYP 2E1 inhibition ratio reported for O.O.O=P([O-])([O-])O.[Ca+2] [Dicalcium phosphate dihydrate] please. 55.0
